- METHOD_NOTES: qHTS RealTime-Glo MT Cell Viability Assay in HEK293 cells - 32 hour (AID 1224868); also: nearly all actives have a fitted effect of over 50% in size
- CONDITION_LABEL: RealTime-Glo luminescence; series mostly up to 76.8 µM
- Excerpt: National Center for Advancing Translational Sciences [NCATS] NIH Chemical Genomics Center [NCGC] U.S. Environmental Protection Agency [EPA] National Institutes of Environmental Health Sciences [NIEHS] National Toxicology Program [NTP] U.S. Food and Drug Administration [FDA] Measure of cell viability is critical in the cell-base assay. Analysis of cell viability is necessary for the characterization of cell responses to cytotoxic drugs and environmental stress. […]
Inconclusive results are not listed. Activity calls are given as the source filed them. Calls follow the shape of the dose curve; as a rule, active = well fitted cell-killing curve with a large enough effect in the repeat runs; inconclusive = weak or mixed curves, or effect the other way; inactive = flat fitted curve, though single readings scatter.
Labels: yes (1) for active, no (0) for inactive

                                    molecule  class_label
 0      O=C(OCCOCCOCCOC(=O)c1ccccc1)c1ccccc1       no (0)
 1  N#C[C@@H]1CC(F)(F)CN1C(=O)CNC1CC2CCC(C1)N2c1ncccn1 (stereo partly specified)       no (0)
 2                        OCCOc1cccc(OCCO)c1       no (0)
 3  Cc1nc2sccn2c(=O)c1CCN1CCC(=C(c2ccc(F)cc2)c2ccc(F)cc2)CC1      yes (1)
 4                         CCC[Si](OC)(OC)OC       no (0)
 5            CCc1ccc2c(c1)C(=O)c1ccccc1C2=O       no (0)
 6  CC1(C)[C@@H]2CC[C@]3(C2)[C@@H]1C(=O)CCC3(C)C       no (0)
 7  CC(C(=O)O)c1ccc2c(c1)Cc1cccnc1O2 (stereo unspecified)       no (0)
 8         COc1ccc(/C=C/c2cc(OC)cc(=O)o2)cc1      yes (1)
 9                     CC1(C)C(=O)NC(=O)N1CO       no (0)
10                         CCCCCCCCCCCCCCCCN       no (0)
11                           CCCc1ccc(OC)cc1       no (0)
12                                 C1=COCCC1       no (0)
13  COc1ccnc2c1CCCCC2S(=O)c1nc2ccccc2[nH]1 (stereo unspecified)      yes (1)
14           COc1ccc(CN(CCN(C)C)c2ncccn2)cc1       no (0)
15  Cc1cc(SC2=C(O)C[C@@](CCc3ccc(N)cc3)(C(C)C)OC2=O)c(C(C)(C)C)cc1CO       no (0)
16  CC(=O)Oc1cccc2c1C(=O)c1c(OC(C)=O)cc(C(=O)O)cc1C2=O       no (0)
17                        Cc1ccc(NC=O)c(C)c1       no (0)
18                            CCCCOC(=O)CC#N       no (0)
19               Cc1ccc2ccccc2c1[N+](=O)[O-]       no (0)
20           c1ccc(CCNc2nc(-c3ccccc3)cs2)cc1       no (0)
21                   O=[N+]([O-])c1cccc(I)c1       no (0)
22                       FC(F)(Cl)C(F)(Cl)Cl       no (0)
23  FC1(F)C(F)(F)C(F)(F)C2(F)C(F)(C1(F)F)C(F)(F)C(F)(F)C1(F)C(F)(F)C(F)(F)C(F)(F)C(F)(F)C12F (stereo unspecified)       no (0)
24                       [O-][n+]1ccc(Cl)cc1       no (0)
25  CC(=O)OCC(=O)[C@@]1(O)CC[C@H]2[C@@H]3CCC4=CC(=O)C=C[C@]4(C)[C@@]3(F)[C@@H](O)C[C@@]21C       no (0)

----------
- MEASUREMENT_TARGET: Luciferin 4-monooxygenase (Photinus pyralis)
- METHOD_NOTES: qHTS assay to identify small molecule inhibitors of firefly luciferase (AID 1224835); also: nearly all actives have a fitted effect of over 25% in size
- CONDITION_LABEL: purified P. pyralis luciferase, luminescence inhibition; series mostly up to 115 µM
Results filed as inconclusive are left out. Active and inactive are the calls of the source. The call rests on the fitted dose curve; in most records, active means well fitted inhibition curve with a large enough effect in the repeat runs; inconclusive means weak or mixed curves; inactive means flat fitted curve, though single readings scatter.
Labels: active, inactive

>>> df
                                    compound  class_label
 0                         C=CC(=O)NC(C)(C)C     inactive
 1               Cc1ccc2ccccc2c1[N+](=O)[O-]     inactive
 2                                 CC(C)(C)N     inactive
 3      CCCCCC1CCC(=O)O1 (centres undefined)     inactive
 4                     CC1(C)C(=O)NC(=O)N1CO     inactive
 5                Cc1ccc2c(Cl)cc(Cl)c(O)c2n1     inactive
 6  CC(CN=Cc1ccccc1O)N=Cc1ccccc1O (centres undefined)     inactive
 7  C=CC(C)(O)CC/C=C(/C)CCC=C(C)C (centres undefined)     inactive
 8         O=C(O)c1cccnc1Nc1cccc(C(F)(F)F)c1       active
 9  O=C(OCCN1CCOCC1)c1cccnc1Nc1cccc(C(F)(F)F)c1     inactive
10  Nc1nc(Cl)nc2c1ncn2[C@H]1C[C@H](O)[C@@H](CO)O1     inactive
11  CC(C)C[C@H](NC(=O)[C@H](Cc1ccccc1)NC(=O)c1cnccn1)B(O)O     inactive
12                      Oc1ccc(Oc2ccccc2)cc1     inactive
13                            O=C(O)c1ccncc1       active

----------
- METHOD_NOTES: A CellTox Green Cytotoxicity Assay to monitor cytotoxicity in HepG2 cells - 32 hour (AID 1224883); also: nearly all actives have a fitted effect of over 50% in size
- CONDITION_LABEL: CellTox Green fluorescence; series mostly up to 76.8 µM
Results filed as inconclusive are left out. Activity calls are given as the source filed them. Calls come from the whole dose curve; as a rule, active = well fitted activation curve with a large enough effect in the repeat runs; inconclusive = weak or mixed curves; inactive = flat fitted curve, though single readings scatter.
Labels: true (active), false (inactive)

                                    compound  class_label
 0                           CC(C)Oc1ccccc1O        false
 1           COc1ccc(CN(CCN(C)C)c2ncccn2)cc1        false
 2  CC(=O)CC/C=C(\C)CC/C=C(\C)CC/C=C(\C)CCC=C(C)C        false
 3                    COC(=O)Cc1cccc2ccccc12        false
 4                              CCOC(OCC)OCC        false
 5  Cc1ccc(Cl)c(OCC(O)CNC(C)(C)C)c1 (configuration not stated)        false
 6                             Nc1ccc(F)cc1F        false
 7                 Cc1c(Cl)cccc1[N+](=O)[O-]        false
 8                        Cc1ccc(NC=O)c(C)c1        false
 9                         C=CC(=O)NC(C)(C)C        false
10                    O=C(Cl)c1ccc(F)c(Cl)c1        false
11                                    C=CCCC        false
12  CC(=O)Oc1cccc2c1C(=O)c1c(OC(C)=O)cc(C(=O)O)cc1C2=O        false
13                      CCCCCCOC(=O)c1ccccc1        false
14                             CCC(CC)C(=O)O        false
15         O=C(O)c1cccnc1Nc1cccc(C(F)(F)F)c1        false
16  CCN(CC)CC(=O)OCC(=O)[C@@]1(O)CC[C@H]2[C@@H]3CCC4=CC(=O)CC[C@]4(C)[C@H]3[C@@H](O)C[C@@]21C        false
17  CC(C(=O)O)c1ccc2c(c1)Cc1cccnc1O2 (configuration not stated)        false
18                          O=C(O)CNc1ccccc1        false
19  CCCCCCCCCC(C)C=O (configuration not stated)         true
20                CCc1cnc(C(=O)O)c(C(=O)O)c1        false
21   C[C@H](CN1CCCC1)C(=O)c1ccc(C(F)(F)F)cc1         true
22         O=C(OCCCCCOC(=O)c1ccccc1)c1ccccc1        false
23               CCOc1cc(OCC)c(C(C)=O)cc1OCC        false
24                        CC(C)CCCCCOC(=O)CS        false
25                                CCOC(C)OCC        false
26             Clc1ccccc1-c1nc(-c2ccncc2)no1        false
27                      O=C(O)c1ccc(O)c(O)c1        false
28                             CC(C)Cc1nccs1        false
29            Clc1cc(Cl)c2c(c1)N=C1CCCCCN1C2        false
30                      NC(=O)c1ccccc1C(N)=O         true
31                     O=c1[nH][nH]c2ccccc12        false
32  C/C(=C(\CCO)SS/C(CCO)=C(\C)N(C=O)Cc1cnc(C)nc1N)N(C=O)Cc1cnc(C)nc1N        false
33                  CC(=O)c1ccc(Cl)c(Cl)c1Cl        false
34                       CCCCCCCCCCCC(=O)OCC        false
35                           Cc1cc(C)n(CO)n1        false
36  CC(C)(C(=O)O)c1ccc(C(O)CCCN2CCC(C(O)(c3ccccc3)c3ccccc3)CC2)cc1 (configuration not stated)        false
37  NC(=O)c1cc[n+](CC2=C(C(=O)[O-])N3C(=O)[C@@H](NC(=O)Cc4cccs4)[C@H]3SC2)cc1        false
38  CCCCC(CC)COCCC#N (configuration not stated)        false
39                         CCCCCCCCCCCCCCCCN         true
40                                     OCCCO        false
41  CC(C)C[C@H](NC(=O)[C@H](Cc1ccccc1)NC(=O)c1cnccn1)B(O)O         true
42  N#C[C@@H]1CC(F)(F)CN1C(=O)CNC1CC2CCC(C1)N2c1ncccn1 (some centres not stated)        false
43  CCCC1CCCC(=O)O1 (configuration not stated)        false
44  CC(Cc1ccccc1)(NC(=O)CN)c1ccccc1 (configuration not stated)        false
45     CC(O)C(C)O (configuration not stated)        false
46  CCCCCC1CCC(=O)O1 (configuration not stated)        false
47                                CC/C=C/CCO        false
48      O=C(O)c1cc(C(=O)O)cc([N+](=O)[O-])c1        false
49                      Oc1ccc(Oc2ccccc2)cc1         true
50  Clc1cccc(C(c2ccc3nc[nH]c3c2)n2ccnc2)c1 (configuration not stated)        false
51  O=C1c2ccccc2C(=O)C1c1ccc2cc(S(=O)(=O)O)cc(S(=O)(=O)O)c2n1        false
52              Nc1ccc(C(=O)Oc2ccccc2)c(O)c1        false
53    O=C(Nc1ccccc1)c1cc([N+](=O)[O-])ccc1Cl        false
54                                   CS(C)=O        false
55  CCC1=C(C)CN(C(=O)NCCc2ccc(S(=O)(=O)NC(=O)NC3CCC(C)CC3)cc2)C1=O (configuration not stated)        false
56           COc1ccc(C(=O)c2ccc(C)cc2)c(O)c1        false

// provenance: PubChem BioAssay (Tox21)
